# System: CP252
# ASSAY_METHOD_TEXT: qHTS profiling for inhibitors of Plasmodium falciparum proliferation (AID 504749); also: potency is read from the fitted curve at half-maximal effect; nearly all actives have a fitted effect of over 60% in size
# CONDITIONS: P. falciparum in erythrocytes, SYBR Green DNA, 72 h; series mostly up to 28.7 µM
# Description: NIH National Institute of Allergy and Infectious Diseases [NIAID] NIH Chemical Genomics Center [NCGC] […] Because mature erythrocytes lack DNA, only Plasmodium-derived DNA is detected. NCGC Assay Protocol Summary: The SYBR Green viability assay was adapted from a method described previously (Plouffe et al., 2008). […] The following morning, fluorescence intensity at 485(14) nm excitation and 535(25) nm emission wavelengths was measured on an EnVision (Perkin Elmer) plate reader. […]
Records with an inconclusive call do not appear. Calls of active or inactive are those of the source. Calls follow the shape of the dose curve; as a rule, active = well fitted inhibition curve with a large enough effect; inconclusive = small, poorly fitted or top-dose-only effect; inactive = flat fitted curve, though single readings scatter.
ASSAY_METRIC: Potency

Potency on CP252 for CN1CCC(Nc2ncc3ncnc(Nc4ccc(F)c(Cl)c4)c3n2)CC1 is 7.94 µM (active)

Potency on CP252 for CCCCCCCCCCCCCC[N+](C)(C)C is 7.08 µM (active)

Potency on CP252 for Nc1c2ccccc2nc2ccccc12 is 10 µM (active)

Potency on CP252 for CCCCCCCCCCCCCCCC[n+]1ccccc1 is 6.31 µM (active)

----------
# System: Zika virus NS2B-NS3 protease
# ASSAY_METHOD_TEXT: Primary screen GU AMC qHTS for Zika virus inhibitors (AID 1347154); also: nearly all actives have a fitted effect of over 70% in size
# CONDITIONS: Zika NS2B-NS3 unlinked protease, AMC fluorogenic substrate; series mostly up to 54.1 µM
Records with an inconclusive call do not appear. Calls of active or inactive are those of the source. Calls come from the whole dose curve; as a rule, active = well fitted inhibition curve with a large enough effect; inconclusive = small, poorly fitted or top-dose-only effect; inactive = flat fitted curve, though single readings scatter.
ASSAY_METRIC: outcome

Previously resolved entries follow.
- COMPOUND: "Oc1ccc(CCNCCCCCCNCCc2ccccc2)cc1O"
  outcome: "inactive"
- COMPOUND: "OCCc1ccccc1"
  outcome: "inactive"
- COMPOUND: "O=C(OCC(COC(=O)c1cccnc1)(COC(=O)c1cccnc1)COC(=O)c1cccnc1)c1cccnc1"
  outcome: "inactive"
- COMPOUND: "O=C(O)Cn1c(=O)n(Cc2ccc(Br)cc2F)c(=O)c2ccc(Cl)cc21"
  outcome: "inactive"

# outcome (compound: CCCCCC(=O)O[C@]1(C(C)=O)CC[C@H]2[C@@H]3CCC4=CC(=O)CC[C@]4(C)[C@H]3CC[C@@]21C ) is inactive

# outcome (compound: CC(C)NC(=O)c1ccc(C=O)cc1 ) is inactive

----------
# ASSAY_METHOD_TEXT: qHTS of pediatric cancer cell lines to identify multiple opportunities for drug repurposing: Primary screen for NB-EBc1 cells (AID 1347095)
# CONDITIONS: NB-EBc1 neuroblastoma viability, CellTiter-Glo luminescence, 48 h; series mostly up to 46 µM
Inconclusive results are not listed. The source made the active and inactive calls. Calls come from the whole dose curve; as a rule, active = well fitted cell-killing curve with a large enough effect; inconclusive = small, poorly fitted or top-dose-only effect; inactive = no such curve, though single readings can be large or run the other way.
Thanks in advance; please answer with one of these: active, inactive

## Task Short answer needed: outcome of this test for C/C(=C(/OCCOc1ccc(Cl)cc1)c1ccc(Cl)cc1Cl)n1ccnc1 ?
## Result inactive

## Task Short answer needed: outcome of this test for OC[C@]1(O)OC[C@@H](O)[C@H](O)[C@@H]1O ?
## Result inactive

## Task Short answer needed: outcome of this test for CO/N=C(/C(=O)N[C@@H]1C(=O)N2C(C(=O)O)=C(Cn3nnc(C)n3)CS[C@H]12)c1csc(N)n1 ?
## Result inactive

## Task Short answer needed: outcome of this test for Cc1nc2n(c(=O)c1CCN1CCC(C(=O)c3ccc(F)cc3)CC1)CCS2 ?
## Result inactive

## Task Short answer needed: outcome of this test for O=C1Nc2ccccc2C1(c1ccc(O)cc1)c1ccc(O)cc1 ?
## Result inactive

## Task Short answer needed: outcome of this test for CN1CC(=O)N2[C@H](c3ccc4c(c3)OCO4)c3[nH]c4ccccc4c3C[C@@H]2C1=O ?
## Result inactive

## Task Short answer needed: outcome of this test for [O-][n+]1cccc(/C(Cl)=N/OC[C@@H](O)CN2CCCCC2)c1 ?
## Result inactive

## Task Short answer needed: outcome of this test for OC1(c2ccccc2)CCNCC1 ?
## Result inactive

## Task Short answer needed: outcome of this test for CC(=O)c1cc2ccccc2s1 ?
## Result inactive

## Task Short answer needed: outcome of this test for Cc1ccc(/C=N/n2c(-c3ccccc3)csc2=S)cc1 ?
## Result inactive

## Task Short answer needed: outcome of this test for Nc1c2ccccc2nc2ccccc12 ?
## Result active

## Task Short answer needed: outcome of this test for COc1ccc2cc(C=O)ccc2c1 ?
## Result inactive

Hey, just so you know, these numbers are from PubChem BioAssay (NCATS).
